assay: soluble on expression in E. coli; label from the status in PepcDB or PDB records
value-kind: soluble on expression in E. coli

- MADKHLIREKVLRNLNTIDKVEHRERSIKLAEKLFLLPEWNQAKVIGITLARHPEIETETIILQAKKEGKTVLIPKTFYPSRKMEFKKMDSSHPLTKTKFGILEPHELAETVDKDAIDLLIVPGVVFNKAHFRIGFGGGFYDRFLADFKGETVSLCLYEQQIEFTPESHDKPVSILIEG: soluble
- GMSSNLHGIAIGIERSQDDFYLAFKAVGKLTHEDYEQMTPLLESALAGIKTPEIVALIDITELDGLSLHAAWDDLKLGLKHGKEFKRVAIIGQGELQEWATRVANWFTPGEFKFFEDKRDALDWLC: soluble
- MRGSHHHHHHGSMEEYYMKLALDLAKQGEGQTESNPLVGAVVVKDGQIVGMGAHLKYGEAHAEVHAIHMAGAHAEGADIYVTLEPCSHYGKTPPCAELIINSGIKRVFVAMRDPNPLVAGRGISMMKEAGIEVREGILADQAERLNEKFLHFMRTGLPYVTLKAAASLDGKIATSTGDSKWITSEAARQDAQQYRKTHQSILVGVGTVKADNPSLTCRLPNVTKQPVRVILDTVLSIPEDAKVICDQIAPTWIFTTARADEEKKKRLSAFGVNIFTLETERIQIPDVLKILAEEGIMSVYVEGGSAVHGSFVKEGCFQEIIFYFAPKLIGGTHAPSLISGEGFQSMKDVPLLQFTDITQIGRDIKLTAKPTKE: soluble
- MAHHHHHHMRCFRASCCAPSPWQRACSTVASVSDTADLVIVRESPLDNVVLLEMNNGRANVLTPEFISAFLNKLSDLCDPDKSKCSGIILTSKSPGVFSAGLDLNELNTNLSQDRFAQYWSQFQKLFTTLHALPVPLVGAINGHAAAAGCIVALACDYRVMARRHPTKPTHLTIGIAAAKHGFVVPSYVAASMEHVVGFRKAEELLCMGLLLSAGEALKVGLVDEVVEHHDETVVPCLQFMEKLLELPSPAPYWMIKDLSRRHILAPLCTPALRTQDMVSFYNLFSNLQVKKMLAEHAQKFAKK: not soluble
- MKLALVNRQVILPESGTESFQCHASTLVRLPCGTLVAAWFAGLREGSEDTAIWLSRYEHNIWTTPQRVAAREGEAHWNPVLFYPSDKLWLFYKVGSDVHVWKTWFITSSDRGFTWSTPAPLVNDDILPRGPVKNKLLLASNGAWIAPGSIESPERWRAFVDRSSDEGKHWSISFVPLEPDNAISGTNVALWDGIKKGRLWECCLENLLRWDGVIQPTLWESSPGHIHMLLRSTRGAIFRSDSIDYGATWSVARATSLPNNNSGIDLVSMQDGTLILALNPVNGNWGKRYPLSLIASQDNGESWLPLLDLESDHGEYSYPAIISEGGIVHITYTWNRKNIVYCRLQTVLEHHHHHH: not soluble
- MKIYYLGPEGSYTEKAALKFAELTNLKITPAESIYSVFREVERGNYGVVPTENSIEGSVTLTLDLLLRFPVKIFGETSLEIKHALLGYDLSKIRVVLSHPQALAQCREFIQRMRWGVRETNSTAEAVKIVAESNDPTLAAIGSREAAEIYGLKVLAEDIQDYPNNKTRFILIGREDM: not soluble
- MSGTKASVFSTILQLMNSLAIRAVADNVRRLLEARRLSQKELAALSGVSQKSINDLLNYGGTVSKEPRLGTIEKLAKGFGIATWQLQIPGLPVDLLQGQMVSKVIENFRDAGTVGRENISRVAESEVRYSLVQNSERGAPR: not soluble
- MGSDKIHHHHHHMVRLWLMYKNKEEQANMQVEKDVIYDSAYNLAADLYVPDEANGGAIVYAHGGGWFRGDKENESDLGKYFADAGYLFTIPNFRLAPKYLYPTAQNDFDHFINWLLASPYDFDRERLGLLGASSGGTMVLQNSLASGYPLVAWSPVVDFANWVQKNQMVKASVDGKKELGLTEIHEIHDSFYKYFVQTYLGGLDPRLLTAVNPTNHLTDQLGPALLFNSADELMPLPSALHFLQQAAMFGRDIGLHVVPGTGHARDYTSFALPETKRFFDHHLFTTVEDKTLNKATD: not soluble
- MGSDKIHHHHHHMSKLDAFIQQAVTAMPISGTSLIASLYGDALLQRGGEVWLGSVAALLEGLGFGERFVRTALFRLNKEEWLDVVRIGRRSFYRLSDKGLRLTRRAEHKIYRASAPEWDGTWLLLLSEGLEKNVLADVKKQLLWQGFGALAPSLLASPSQKLADVQSLLHEAGVAENVICFEAHSPLALSRAALRDRVEECWHLTEQNEMYEAFIALFRPLLPLLRDSEPSELTPERCFQIQLLLIHFYRRVVLKDPLLPEELLPAHWAGQTARQLCINIYQRVSPGALAFVSEKGESSVGELPAPGPLYYQRFGGLPGA: not soluble
- MKGDVSPIFSPKHLQFKRPTLWRYGRIQKISIMSSKRSSPTGKLRLLSFLRDLLEDESNSDIIYWFDKSESVFKMSKPHKVAELWGAATGNPGMNYDKMSRGLRYFYTNNTLEKVPGKDARYRFIDSPRHSFLDFSMKTELETPVKRTPLFNISNLISDFEVSNNSLTSSPTSSASSVEPSSPTTTESSLDPSQFVQLTQNLVQFNTFMSQNPMFHTLPLPTQLQVFFNFKTIFPSLFPALV: not soluble
- MTEDRNFDDIAHKFAKNIYGSDKGEIRQVIVWEDLEQLLSQLDTQKVPLHVLDAGGGLAQVSQKIARLGHRVTLCDLSSEMLQLAEQDIANNGLLEQYRFVHSPVQTIQAHLDAPVDLVLFHAVMEWLAEPKPALQNLLAQVRPGGMVSVMFYNYHGLVYKNAVCGNIPHVLEDMPHRKRFKLQPQKGLLPEEVYQWIEESSFEICGKSGIRCFSDYIGNMKNMGEYQYEDLVALERKFCRQEPYLSLGRYIHVWAKKKQ: not soluble
